target: HIV-1 JR-CSF Env S393A (HIV-1 (isolate JR-CSF)) (UniProt P20871); assay: cell-based or functional assay
observed-property: Fold IC50 increase relative to wild-type
Number plus unit, in that order.

These solved cases illustrate the format of a correct answer.
>>> result("PGT-131 (antibody, V domains shown) VH: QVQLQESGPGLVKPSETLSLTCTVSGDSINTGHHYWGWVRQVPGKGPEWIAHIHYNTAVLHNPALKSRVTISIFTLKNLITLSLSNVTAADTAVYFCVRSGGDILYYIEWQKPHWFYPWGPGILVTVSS VL: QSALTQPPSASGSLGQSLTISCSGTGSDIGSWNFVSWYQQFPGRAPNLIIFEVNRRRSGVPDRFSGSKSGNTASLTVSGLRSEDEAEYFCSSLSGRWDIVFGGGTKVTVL")
"1.1 fold"
>>> result("PGT-127 (antibody, V domains shown) VH: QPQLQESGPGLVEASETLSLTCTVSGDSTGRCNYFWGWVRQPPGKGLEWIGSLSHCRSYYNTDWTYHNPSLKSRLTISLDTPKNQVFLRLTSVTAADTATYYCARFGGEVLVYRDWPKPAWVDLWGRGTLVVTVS VL: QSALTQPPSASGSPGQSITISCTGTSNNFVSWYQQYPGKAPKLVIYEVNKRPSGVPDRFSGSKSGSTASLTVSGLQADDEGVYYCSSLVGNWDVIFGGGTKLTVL")
"1.2 fold"

Prompt: Item PGT-135 (antibody, V domains shown) VH: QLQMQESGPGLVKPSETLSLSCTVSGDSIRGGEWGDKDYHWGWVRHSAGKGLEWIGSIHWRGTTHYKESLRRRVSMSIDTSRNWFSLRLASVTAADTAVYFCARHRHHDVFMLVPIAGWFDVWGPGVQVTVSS VL: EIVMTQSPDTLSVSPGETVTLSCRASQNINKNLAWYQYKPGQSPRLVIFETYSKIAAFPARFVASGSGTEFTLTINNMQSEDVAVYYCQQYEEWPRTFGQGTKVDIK : provide Fold IC50 increase relative to wild-type
Response: 0.9 fold

Prompt: Return Fold IC50 increase relative to wild-type (reported value) for this binder: PGT-126 (antibody, V domains shown) VH: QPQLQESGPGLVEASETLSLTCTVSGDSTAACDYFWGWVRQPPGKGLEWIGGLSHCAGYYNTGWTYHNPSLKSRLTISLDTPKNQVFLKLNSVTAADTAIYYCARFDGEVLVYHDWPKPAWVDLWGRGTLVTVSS VL: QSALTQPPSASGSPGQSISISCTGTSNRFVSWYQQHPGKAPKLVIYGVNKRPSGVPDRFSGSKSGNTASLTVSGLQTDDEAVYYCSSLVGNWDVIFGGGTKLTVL
Response: 0.5 fold

The reported numbers originate from patent US20200024330A1.
